Value source: patent US9481673B2

- targetOrTestSystem: P450 2C9 (Homo sapiens (Human), UniProt P11712)
- Sequence (P11712 whole entry): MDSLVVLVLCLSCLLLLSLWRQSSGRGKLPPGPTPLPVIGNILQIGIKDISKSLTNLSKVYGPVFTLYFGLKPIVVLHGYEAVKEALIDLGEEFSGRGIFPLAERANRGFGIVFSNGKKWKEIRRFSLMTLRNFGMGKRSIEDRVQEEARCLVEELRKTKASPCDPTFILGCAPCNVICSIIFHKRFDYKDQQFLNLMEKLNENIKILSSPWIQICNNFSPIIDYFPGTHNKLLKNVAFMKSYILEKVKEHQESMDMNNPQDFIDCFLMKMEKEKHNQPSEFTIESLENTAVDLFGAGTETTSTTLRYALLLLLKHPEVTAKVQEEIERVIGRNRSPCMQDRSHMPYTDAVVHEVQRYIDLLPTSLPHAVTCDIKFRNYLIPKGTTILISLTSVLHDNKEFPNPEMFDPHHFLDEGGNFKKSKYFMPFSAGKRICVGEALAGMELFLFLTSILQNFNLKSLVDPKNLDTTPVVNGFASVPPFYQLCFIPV
- assayOverview: Cytochrome P450 isoenzyme inhibition assay, hydroxylation of Diclofenac
- Format: in vitro ADME
- measurementSetup: (S)-isomers; human liver microsomes, 37° C.
pIC50: −log10 of the molar value.
Recorded measurements of pIC50, one per entry

Lab request: please report pIC50 under test system P450 2C9 (Homo sapiens (Human), UniProt P11712) for CN[C@@H](C)C(=O)Nc1ccc(-c2c(-c3ccnc(C)c3)nc3cc(C)ccn23)c(C#Cc2ccc3c(C)nccc3c2)n1 [(S)-2]
< 4.30

Lab request: please report pIC50 under test system P450 2C9 (Homo sapiens (Human), UniProt P11712) for CN[C@@H](C)C(=O)Nc1ccc(-c2c(-c3ccnc(OC)c3)nc3cc(C)ccn23)c(C#Cc2ccc3c(C)nccc3c2)n1 [(S)-8]
< 4.30

Lab request: please report pIC50 under test system P450 2C9 (Homo sapiens (Human), UniProt P11712) for CN[C@@H](C)C(=O)Nc1ccc(-c2c(-c3cncn3C)nc3cc(C)ccn23)c(C#Cc2ccc3c(C)nccc3c2)n1 [(S)-4]
4.57

Lab request: please report pIC50 under test system P450 2C9 (Homo sapiens (Human), UniProt P11712) for CN[C@@H](C)C(=O)Nc1ccc(-c2c(-c3ccnc(OC)c3)nc3cc(C)ccn23)c(C#Cc2ccc3c(ccc(=O)n3C)c2)n1 [(S)-13]
< 4.30

Lab request: please report pIC50 under test system P450 2C9 (Homo sapiens (Human), UniProt P11712) for CN[C@@H](C)C(=O)Nc1ccc(-c2c(-c3ccc(C)nc3)nc3cc(C)ccn23)c(C#Cc2ccc3c(C)nccc3c2)n1 [(S)-6]
< 4.30

Lab request: please report pIC50 under test system P450 2C9 (Homo sapiens (Human), UniProt P11712) for CN[C@@H](C)C(=O)Nc1ccc(-c2c(-c3cccnc3C)nc3cc(C)ccn23)c(C#Cc2ccc3c(C)nccc3c2)n1 [(S)-5]
< 4.30

Lab request: please report pIC50 under test system P450 2C9 (Homo sapiens (Human), UniProt P11712) for CN[C@@H](C)C(=O)Nc1ccc(-c2c(-c3ccc(OC)nc3)nc3cc(C)ccn23)c(C#Cc2ccc3c(ccc(=O)n3C)c2)n1 [(S)-14]
< 4.30

Lab request: please report pIC50 under test system P450 2C9 (Homo sapiens (Human), UniProt P11712) for CN[C@@H](C)C(=O)Nc1ccc(-c2c(-c3cccnc3OC)nc3cc(C)ccn23)c(C#Cc2ccc3c(C)nccc3c2)n1 [(S)-1]
4.42

Lab request: please report pIC50 under test system P450 2C9 (Homo sapiens (Human), UniProt P11712) for CN[C@@H](C)C(=O)Nc1ccc(-c2c(-c3cccnc3OC)nc3cc(Cl)ccn23)c(C#Cc2ccc3c(C)nccc3c2)n1 [(S)-15]
4.72

Lab request: please report pIC50 under test system P450 2C9 (Homo sapiens (Human), UniProt P11712) for CN[C@@H](C)C(=O)Nc1ccc(-c2c(-c3cnc(C)nc3)nc3cc(C)ccn23)c(C#Cc2ccc3c(ccc(=O)n3C)c2)n1 [(S)-12]
< 4.30

Others:
Lab request: please report pIC50 under test system P450 2C9 (Homo sapiens (Human), UniProt P11712) for CN[C@@H](C)C(=O)Nc1ccc(-c2c(-c3ccc(OC)nc3)nc3cc(C)ccn23)c(C#Cc2ccc3c(C)nccc3c2)n1 [(S)-9]
< 4.30

Lab request: please report pIC50 under test system P450 2C9 (Homo sapiens (Human), UniProt P11712) for CN[C@@H](C)C(=O)Nc1ccc(-c2c(-c3cnc(C)nc3)nc3cc(C)ccn23)c(C#Cc2ccc3c(C)nccc3c2)n1 [(S)-7]
< 4.30

Lab request: please report pIC50 under test system P450 2C9 (Homo sapiens (Human), UniProt P11712) for CN[C@@H](C)C(=O)Nc1ccc(-c2c(-c3cccnc3OC)nc3ccccn23)c(C#Cc2ccc3c(C)nccc3c2)n1 [(S)-16]
4.68

Lab request: please report pIC50 under test system P450 2C9 (Homo sapiens (Human), UniProt P11712) for CN[C@@H](C)C(=O)Nc1ccc(-c2c(-c3cnn(C)c3)nc3cc(C)ccn23)c(C#Cc2ccc3c(C)nccc3c2)n1 [(S)-3]
< 4.30

Lab request: please report pIC50 under test system P450 2C9 (Homo sapiens (Human), UniProt P11712) for CN[C@@H](C)C(=O)Nc1ccc(-c2c(-c3ccnc(C)c3)nc3cc(C)ccn23)c(C#Cc2ccccc2)n1 [(S)-11]
< 4.30
